Every entry's value here was drawn from patent US20250059162A1.

- Tested System: c-Myc protein (Homo sapiens, UniProt P01106)
- Construct: degradation of myc and GSPT1 proteins in HL60 cells; endogenous in cells; host or cells: HL60
- Sequence (P01106 whole entry): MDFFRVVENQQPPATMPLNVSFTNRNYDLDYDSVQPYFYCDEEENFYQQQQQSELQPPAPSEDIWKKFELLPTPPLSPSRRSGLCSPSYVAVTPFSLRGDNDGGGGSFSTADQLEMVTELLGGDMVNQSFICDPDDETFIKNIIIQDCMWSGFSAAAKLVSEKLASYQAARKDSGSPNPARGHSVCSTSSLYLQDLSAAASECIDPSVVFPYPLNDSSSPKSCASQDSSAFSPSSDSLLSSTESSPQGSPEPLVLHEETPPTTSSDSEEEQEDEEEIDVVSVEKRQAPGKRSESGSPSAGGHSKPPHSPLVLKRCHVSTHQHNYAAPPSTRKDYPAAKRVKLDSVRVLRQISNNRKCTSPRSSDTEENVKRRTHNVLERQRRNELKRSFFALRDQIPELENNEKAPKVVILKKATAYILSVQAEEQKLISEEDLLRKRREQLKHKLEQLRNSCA
- Measurement Protocol: c-Myc protein degradation in HL60 cells (Western blot)
- Assay type: cell-based
- Run Conditions: HL-60, compound at 10 nM, 24 h, gray value relative to Ctrl (DMSO), read-out: Remaining amount of c-Myc protein (@10 nM/Ctrl)
- Method: HL60 cells in the exponential growth phase were digested and plated into a 6-well plate at 1×10^6 cells per well. The cell culture medium was RPMI-1640 (meilunbio, MA0215). After a day of adherent growth of the cells, the compound of the present invention was added as a test drug for culture, and proteins were extracted 24 h later (Ctrl meant adding only DMSO at the same volume). […]
Test Readout: remaining activity at 0.01 µM (%)

I. O=C1CCC(N2Cc3cc(CNCC4CCN(c5ccc(-c6cccc(Cl)c6)nc5)CC4)ccc3C2=O)C(=O)N1 (stereo not drawn) [Compound A71]
II. CC(NCc1ccc2c(c1)CN(C1CCC(=O)NC1=O)C2=O)C1CCN(c2ncc(-c3cccc(Cl)c3)cc2F)CC1 (stereo not drawn) [Compound A105]
III. O=C1CCC(N2Cc3cc(C(=O)NCC4CCN(c5ncc(-c6cccc7ccccc67)cn5)CC4)ccc3C2=O)C(=O)N1 (stereo not drawn) [Compound A29]
hey, can you rank those compounds up there by remaining activity at 0.01 µM? biggest number first please Kindly provide the labels arranged according to the requested ordering. II, I, III

* * *

- Tested on: HL60 cells
- Measurement Protocol: Anti-proliferation on HL60 cells (CellTiter-Glo, 3 days)
- Assay type: cell-based
- Run Conditions: Homo sapiens, HL-60, 72 h, 3 days incubation, CTG luminescence, IC50 by XLfit, read-out: HL60 cells Proliferation inhibitory activity
pIC50: −log10 of the molar value.
Test Readout: pIC50

See these solved cases before continuing.
[[record]]
compound = "O=C1CCC(N2Cc3cc(NC(=O)CC4CCN(c5ncc(-c6ccccc6)cn5)CC4)ccc3C2=O)C(=O)N1 (stereo not drawn)"
tested_system = "HL60 cells"
reported_result = "> 9.70"

[[record]]
compound = "O=C1CCC(N2Cc3cc(NC(=O)CC4CCN(c5ccc(-c6cccc(Cl)c6)cn5)CC4)ccc3C2=O)C(=O)N1 (stereo not drawn)"
tested_system = "HL60 cells"
reported_result = "> 9.70"


Would you kindly look at the next entry?
Can you look up the measured pIC50 of O=C1CC[C@H](N2Cc3cc(CNCC4CCN(c5ncc(-c6cccc(Cl)c6)cc5C(F)(F)F)CC4)ccc3C2=O)C(=O)N1 for me? > 9.70

* * *

- System: HL60 cells
- Measurement Protocol: Anti-proliferation on HL60 cells (CellTiter-Glo, 3 days)
- Format: cell-based
- Run Conditions: Homo sapiens, HL-60, 72 h, 3 days incubation, CTG luminescence, IC50 by XLfit, read-out: HL60 cells Proliferation inhibitory activity
- Experimental: HL60 cells (Cell Bank of Chinese Academy of Sciences) in the logarithmic growth phase were counted and plated evenly in a 96-well transparent bottom white plate at 20000 cells per well and 100 μL per well. A certain amount of the compound of the present invention was weighed and diluted with DMSO to a 10 mM stock solution. […]
Test Readout: IC50

See these solved cases before continuing.
[[record]]
molecule = "O=C1CCC(N2Cc3cc(CNCC4CCN(c5ncc(-c6cccc(Cl)c6)cn5)CC4)ccc3C2=O)C(=O)N1 (stereo not drawn) [Compound A66]"
test_readout = "IC50"
reported_result = "< 0.2 nM"

[[record]]
molecule = "O=C1CCC(N2Cc3cc(CNCC4CCN(c5ncc(-c6cccc(Cl)c6)cc5Cl)CC4)ccc3C2=O)C(=O)N1 (stereo not drawn) [Compound A75]"
test_readout = "IC50"
reported_result = "< 0.2 nM"

[[record]]
molecule = "O=C1CCC(N2Cc3cc(NC(=O)CC4CCN(c5ncc(-c6ccccc6Cl)cn5)CC4)ccc3C2=O)C(=O)N1 (stereo not drawn) [Compound A54]"
test_readout = "IC50"
reported_result = "< 0.2 nM"

[[record]]
molecule = "Cc1cccc(-c2cnc(N3CCC(CNCc4ccc5c(c4)CN([C@H]4CCC(=O)NC4=O)C5=O)CC3)c(C(F)(F)F)c2)c1 [Compound A123]"
test_readout = "IC50"
reported_result = "< 3.04 nM"

[[record]]
molecule = "O=C1CCC(N2Cc3cc(CNCC4CCN(c5ncc(-c6cccc(C(F)(F)F)c6)cc5F)CC4)ccc3C2=O)C(=O)N1 (stereo not drawn) [Compound A110]"
test_readout = "IC50"
reported_result = "< 0.2 nM"


Can you look up the measured IC50 of O=C1CCC(N2Cc3cc(CNCC4CCN(c5ncc(-c6ccccc6)cc5C(F)(F)F)CC4)ccc3C2=O)C(=O)N1 (stereo not drawn) [Compound A92] for me? < 0.2 nM
